Numbers sourced from PubChem BioAssay (NCI).

Listed here: items and their measured growth inhibition.
RUN DESCRIPTION: NCI Yeast Anticancer Drug Screen. Data for the mlh1 rad18 strain (AID 175)
CONDITION SET: S. cerevisiae mlh1 rad18 strain growth inhibition; at 5.0 µM (retest, dose inferred, filed as 0.5); hits give high values
About 79,000 compounds went through this panel and 15% of them were active in at least one assay; those are over-represented in the sample as a whole.
Number in %, nothing else.

Below, each entry is followed by its recorded growth inhibition result.
CCN(CC)CCOc1ccc(-c2cc(-c3ccccc3)nc(N)n2)cc1 | 55
O=C(NNc1ccccc1)c1ccc([N+](=O)[O-])cc1 | 32
O=C(Nc1ccccc1[N+](=O)[O-])/C(=N/Nc1cccc(Cl)c1)c1c(O)c2ccccc2oc1=O | 44

Request: Can you share its growth inhibition? I mean this compound: Cc1cc(Nc2ccc(O)c(CN3CCN(Cc4cc(Nc5cc(C)nc(N)n5)ccc4O)CC3)c2)nc(N)n1
Result: 7

Request: Can you share its growth inhibition? I mean this compound: OCc1c(-c2cccc3ccccc23)sc(-c2cccc3ccccc23)c1CO
Result: 65

Request: Can you share its growth inhibition? I mean this compound: S=c1nc(C(c2ccccc2)c2ccccc2)[nH][nH]1
Result: -3

Request: Can you share its growth inhibition? I mean this compound: C/C(C=C(C#N)C#N)=C\c1ccc([N+](=O)[O-])cc1
Result: -3

Request: Can you share its growth inhibition? I mean this compound: COC(=O)C1CCN(Cc2ccccc2)CC1=O (centres undefined)
Result: 37

Request: Can you share its growth inhibition? I mean this compound: CCCCCCCCCCCCCCCCNCCCN(C)CCCN
Result: -68

Request: Can you share its growth inhibition? I mean this compound: Cc1cc(NCCO)nc2c1ccc1ccccc12
Result: 2

Request: Can you share its growth inhibition? I mean this compound: C[N+]1(c2ccccc2)C=C(c2ccccc2)SC1=S (centres undefined)
Result: 12

Request: Can you share its growth inhibition? I mean this compound: CC(C)(c1cc(Br)c(O)c(Br)c1)c1cc(Br)c(O)c(Br)c1
Result: 93

Request: Can you share its growth inhibition? I mean this compound: Cc1ccccc1N1C(=O)C(=O)c2cccc(C)c21
Result: 0

Request: Can you share its growth inhibition? I mean this compound: C[n+]1c(-c2ccc(/C=N\NC(=O)c3ccc(C(=O)N/N=C/c4ccc(-c5cn6ccsc6[n+]5C)cc4)cc3)cc2)cn2ccsc21
Result: 88

Request: Can you share its growth inhibition? I mean this compound: O=C1OC(c2ccccc2)(c2ccc(-c3ccc(O)cc3)cc2)c2ccccc21 (centres undefined)
Result: 7

Request: Can you share its growth inhibition? I mean this compound: FC(F)(F)c1cccc(COCCN2CCN(Cc3cccc(C(F)(F)F)c3)CC2)c1
Result: 21
